- experiment: stability 90 C., 20 min (V, BP, TW, BS) of hydrocodone conjugates
- experimental context: TW (abbreviation not defined)
Residues, ends and D or L forms follow the SMILES beside them. *: point of attachment. X1 = COc1ccc2c3c1OC1C(O*)=CCC4[C@@H](C2)N(C)CC[C@]314
readout kind: stability 90 C., 20 min TW

- compound: "CC[C@H](C)[C@H](NC(=O)[C@H](CCC(=O)O)NC(=O)[C@@H](N)CCC(=O)O)C(=O)OC1=CCC2[C@H]3Cc4ccc(OC)c5c4[C@@]2(CCN3C)C1O5 (stereo partly drawn) [Glu-Glu-Ile-HC]"
  number: 26
- compound: "COc1ccc2c3c1OC1C(OC(=O)[C@H](Cc4ccccc4)NC(=O)CNC(=O)CNC(=O)[C@H](CCC(=O)O)NC(=O)[C@@H](N)CCC(=O)O)=CCC4[C@@H](C2)N(C)CC[C@]314 (stereo partly drawn) [Glu2-Gly2-Phe-HC] (H-EEGGF-X1)"
  number: 100
- compound: "CC[C@H](C)[C@H](NC(=O)[C@@H]1CCCN1C(=O)[C@@H]1CCCN1)C(=O)OC1=CCC2[C@H]3Cc4ccc(OC)c5c4[C@@]2(CCN3C)C1O5 (stereo partly drawn) [Pro-Pro-Ile-HC]"
  number: 70
- compound: "CC[C@H](C)[C@H](NC(=O)[C@@H]1CCCN1C(=O)[C@@H]1CCCN1C(=O)[C@H](Cc1ccc(O)cc1)NC(=O)[C@@H](N)Cc1ccc(O)cc1)C(=O)OC1=CCC2[C@H]3Cc4ccc(OC)c5c4[C@@]2(CCN3C)C1O5 (stereo partly drawn) [Tyr2-Pro2-Ile-HC] (H-YYPPI-X1)"
  number: 83
- compound: "COc1ccc2c3c1OC1C(OC(=O)[C@H](Cc4ccccc4)NC(=O)[C@H](Cc4ccccc4)NC(=O)[C@H](Cc4ccccc4)NC(=O)[C@H](CCC(=O)O)NC(=O)[C@@H](N)CCC(=O)O)=CCC4[C@@H](C2)N(C)CC[C@]314 (stereo partly drawn) [Glu2-Phe3-HC, Glu2-Phe3-Hydrocodone] (H-EEFFF-X1)"
  number: 57
- compound: "CC[C@H](C)[C@H](NC(=O)[C@H](Cc1ccccc1)NC(=O)[C@H](Cc1ccccc1)NC(=O)[C@H](CCC(=O)O)NC(=O)[C@@H](N)CCC(=O)O)C(=O)OC1=CCC2[C@H]3Cc4ccc(OC)c5c4[C@@]2(CCN3C)C1O5 (stereo partly drawn) [Glu2-Phe2-Ile-HC] (H-EEFFI-X1)"
  number: 33
